target: T1, Mdm2 (1-125) (human, UniProt Q00987 1-125); assay: apparent Kd, competitive fluorescence polarization; displacement of FAM-…-NH2 from Mdm2 (1-125)
T1 construct: range 1-125; also called Hdm2
T1 sequence (Q00987 1-125 limits assumed): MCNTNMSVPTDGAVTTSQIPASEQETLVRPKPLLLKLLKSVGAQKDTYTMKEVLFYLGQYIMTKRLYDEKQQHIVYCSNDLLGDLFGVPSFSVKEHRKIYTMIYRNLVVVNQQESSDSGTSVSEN
Bridges are numbered along the chain shown (N, C = ends). [ ]: non-standard residue; d: D form. R8 = C=CCCCCCC[C@@](C)(N)C(=O)O; S5 = C=CCCC[C@](C)(N)C(=O)O
EXPERIMENTAL ENDPOINT: Kd (nM)
Give just the numeric value; nM need not be written.

Challenge: Fill blank: measured Kd of the binder Ac-TSF[R8]EYWYLL[S5]-NH2 (staple 4-11; SMILES CC(=O)N[C@H](C(=O)N[C@@H](CO)C(=O)N[C@@H](Cc1ccccc1)C(=O)N[C@]1(C)CCCCCCC=CCCC[C@@](C)(C(N)=O)NC(=O)[C@H](CC(C)C)NC(=O)[C@H](CC(C)C)NC(=O)[C@H](Cc2ccc(O)cc2)NC(=O)[C@H](Cc2c[nH]c3ccccc23)NC(=O)[C@H](Cc2ccc(O)cc2)NC(=O)[C@H](CCC(=O)O)NC1=O)[C@@H](C)O, also called Ac-TSFXEYWYLLX-NH2) [sMTide-06] is ____.
Response given: 128
